Measured protein stability index, listed per entry for reference.
B1: ZNF649 (parent)
chain: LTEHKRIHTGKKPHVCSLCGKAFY

Variants of: B1
experiment description: protein stability index of a GFP-peptide fusion (GPS, HEK-293T) (PSI 1-6); higher = more stable;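 also: lentivirally expressed fusions sorted by FACS into six bins by GFP to DsRed ratio, PSI derived from sequencing read proportions per bin multiplied by bin number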
condition context: c terminus: a fixed tail appended
Write no unit; give the number alone.

Req: Return value of protein stability index for input H8G , no commentary.
Resp: 2.13

Req: Return value of protein stability index for input C19K , no commentary.
Resp: 2.64

Req: Return value of protein stability index for input P13H , no commentary.
Resp: 2.29

Req: Return value of protein stability index for input K12T , no commentary.
Resp: 1.79

Req: Return value of protein stability index for input Y24L , no commentary.
Resp: 3.01

Req: Return value of protein stability index for input A22C , no commentary.
Resp: 2.55

Req: Return value of protein stability index for input I7C , no commentary.
Resp: 2.6

Req: Return value of protein stability index for input H8T , no commentary.
Resp: 2.58

Req: Return value of protein stability index for input F23W , no commentary.
Resp: 1.52
